Source: ChEMBL document CHEMBL1201862

targetEntity: Zinc finger protein mex-5 (Caenorhabditis elegans)
Sequence (Q9XUB2 whole entry): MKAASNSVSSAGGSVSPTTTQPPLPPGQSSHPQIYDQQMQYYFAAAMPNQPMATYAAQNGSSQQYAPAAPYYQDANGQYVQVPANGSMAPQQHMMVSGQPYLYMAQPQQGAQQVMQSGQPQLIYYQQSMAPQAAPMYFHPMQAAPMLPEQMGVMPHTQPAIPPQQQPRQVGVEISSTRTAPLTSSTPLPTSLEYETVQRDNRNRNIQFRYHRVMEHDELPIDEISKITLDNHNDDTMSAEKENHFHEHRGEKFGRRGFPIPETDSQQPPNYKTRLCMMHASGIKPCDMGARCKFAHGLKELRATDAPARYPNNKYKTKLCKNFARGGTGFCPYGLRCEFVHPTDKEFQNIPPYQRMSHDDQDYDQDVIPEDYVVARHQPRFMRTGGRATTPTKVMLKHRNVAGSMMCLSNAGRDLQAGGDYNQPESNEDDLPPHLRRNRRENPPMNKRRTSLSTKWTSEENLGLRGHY
testProtocol: potency of MEX-5 RNA-binding blockers – biochemical, C. elegans, fluorescence polarization, dose response (AID 1960)
Active and inactive are the calls of the source.
# EC50 listing for each entry below

INPUT: Reported EC50, compound O=C(NCc1ccccn1)C1Nc2ccc(OC(F)(F)F)cc2C2C=CCC12 (stereo unspecified) : ____
OUTPUT: > 300 µM (not active)

Others:
INPUT: Bench note: what EC50 did COc1ccc2c(-c3ccccc3)cc(SCC(N)=O)nc2c1 show?
OUTPUT: > 300 µM (not active)

INPUT: Quick one: EC50 for COc1cccc(N2C(=O)NC(=O)/C(=C/c3ccc([N+](=O)[O-])s3)C2=O)c1 ?
OUTPUT: 27.2 µM (active)

INPUT: Report EC50 for O=C(Cn1cc(C=C2C(=O)NC(=O)NC2=O)c2ccccc21)NCC1CCCO1 (stereo unspecified) please.
OUTPUT: 10.1 µM (active)

====

targetEntity: Replicative DNA helicase DnaB (Mycobacterium tuberculosis)
Sequence (P9WMR3 1-399, added parts left off): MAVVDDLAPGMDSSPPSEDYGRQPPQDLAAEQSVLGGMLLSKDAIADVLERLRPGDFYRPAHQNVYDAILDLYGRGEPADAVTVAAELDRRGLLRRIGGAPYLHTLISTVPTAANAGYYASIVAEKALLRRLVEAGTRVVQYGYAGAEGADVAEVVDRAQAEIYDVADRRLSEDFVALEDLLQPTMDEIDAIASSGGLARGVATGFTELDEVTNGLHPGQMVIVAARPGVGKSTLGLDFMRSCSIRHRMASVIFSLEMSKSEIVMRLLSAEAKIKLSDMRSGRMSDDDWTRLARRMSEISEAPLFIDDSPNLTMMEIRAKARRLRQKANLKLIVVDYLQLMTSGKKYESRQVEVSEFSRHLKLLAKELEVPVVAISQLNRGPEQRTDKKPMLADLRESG
testProtocol: DnaB intein splicing inhibitors, dose response, biochemical, cell-free fluorescence (AID 449749)
Format: functional
Activity calls are given as the source filed them.
Please state which outcome applies, choosing from active, inactive

INPUT: Query: recorded result category for CCC1C(=O)N(c2nc(C)cc(C)n2)N=C1C (stereo not given) in this test
OUTPUT: active

INPUT: Dear all, I need the recorded test outcome for CCC(=O)N/N=C(\C)CC(=O)Nc1cccc([N+](=O)[O-])c1 , thank you.
OUTPUT: active

INPUT: Check the results log: what was the call for Cc1ccc(S(=O)(=O)Nc2ccc(O)c3ccccc23)c(C)c1 ?
OUTPUT: active

INPUT: Assay result, entry COc1cc(/C=C/C(=O)OCC(=O)Nc2ccccc2Sc2ccc(Cl)cc2)ccc1O — outcome?
OUTPUT: inactive

INPUT: For this molecule, state the assay outcome: Nc1nc(-c2ccco2)nn1C(=O)c1ccc(Cl)cc1
OUTPUT: active

More entries:
INPUT: // outcome(item) with item = O=C(CC[S+]([O-])NCc1ccccc1)NCc1ccccc1 (stereo not given)
OUTPUT: inactive

INPUT: What was the test verdict on Cn1[nH]c(CSc2ccc(Cl)cc2)cc1=O ?
OUTPUT: active

INPUT: Please share the test call associated with COc1cc2c(cc1OC)-c1c(OC)c(OC)cc3c1C(C2)N(C)CC3 (stereo not given) .
OUTPUT: active

INPUT: Per the records of this test, what outcome belongs to Cc1[nH]n(-c2ccccc2)c(=O)c1C(c1ccccc1[N+](=O)[O-])C(C#N)C#N (stereo not given) ?
OUTPUT: active

INPUT: Could you please tell me the result logged for FC(F)(F)c1cccc(Oc2nc(-c3ccccc3)nnc2C(F)(F)F)c1 in this assay?
OUTPUT: active

INPUT: Per the records of this test, what outcome belongs to C/C(CC(=O)Nc1ccccn1)=N\NC(=O)Cc1cccc2ccccc12 ?
OUTPUT: active

====

targetEntity: Rac GTPase-activating protein 1 (Homo sapiens, UniProt Q9H0H5)
Sequence (Q9H0H5 whole entry): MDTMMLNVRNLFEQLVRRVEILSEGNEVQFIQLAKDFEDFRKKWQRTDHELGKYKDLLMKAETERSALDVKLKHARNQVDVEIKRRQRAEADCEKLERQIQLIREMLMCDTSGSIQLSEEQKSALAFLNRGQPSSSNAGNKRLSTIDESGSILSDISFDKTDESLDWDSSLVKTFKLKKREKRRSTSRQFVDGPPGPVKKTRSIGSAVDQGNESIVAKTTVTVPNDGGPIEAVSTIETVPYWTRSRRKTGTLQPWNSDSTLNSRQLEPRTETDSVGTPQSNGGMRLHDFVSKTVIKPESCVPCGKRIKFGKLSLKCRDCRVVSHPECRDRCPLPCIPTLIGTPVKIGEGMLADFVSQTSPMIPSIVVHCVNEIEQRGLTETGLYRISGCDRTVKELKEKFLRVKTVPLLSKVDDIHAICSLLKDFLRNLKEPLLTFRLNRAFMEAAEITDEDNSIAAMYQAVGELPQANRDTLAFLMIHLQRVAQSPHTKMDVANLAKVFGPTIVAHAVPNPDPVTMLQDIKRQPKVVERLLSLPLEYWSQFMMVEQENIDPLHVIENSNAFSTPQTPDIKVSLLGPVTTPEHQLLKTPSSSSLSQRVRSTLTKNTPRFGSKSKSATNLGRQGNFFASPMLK
testProtocol: blockers of MgcRacGAP-driven Rac1 GTP hydrolysis – biochemical, ADP Hunter fluorescence, primary and confirmatory, confirmation (AID 624330)
Type: functional
Active and inactive are the calls of the source.
IC50 listing for selected molecules.

INPUT: IC50 for COc1cc(/C=N/NC(=O)c2cccc(N3CCCC3=O)c2)ccc1O ?
OUTPUT: 30.9 µM (active)
